These measurements were taken from patent US10035790B2.

For each record, write down the corresponding pIC50.
Target: ligand binding domain of human RORγ (A262-S507) (Homo sapiens, UniProt P51449)
Construct: made in house; host or cells: E. coli
Sequence (P51449 262-507): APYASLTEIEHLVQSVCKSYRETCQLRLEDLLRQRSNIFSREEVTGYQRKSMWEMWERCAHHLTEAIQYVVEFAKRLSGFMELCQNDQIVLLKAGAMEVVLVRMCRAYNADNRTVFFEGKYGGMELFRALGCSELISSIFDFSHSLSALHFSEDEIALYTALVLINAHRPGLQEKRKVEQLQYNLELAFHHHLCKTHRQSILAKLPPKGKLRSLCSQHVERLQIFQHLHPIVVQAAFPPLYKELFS
Assay: General RORγ SPA binding assay (competition with [3H]25-hydroxycholesterol)
Details: RORγ SPA binding assay, inhibition of [3H]25-hydroxycholesterol binding; read-out: IC50
Please keep in mind that pIC50 is minus log10 of the molar concentration; only the number is needed.

Q: I have this molecule here, Cc1nc(N)nc(C2CCN(C(=O)Nc3c(F)cccc3F)CC2)c1-c1nnc(-c2cccc(C(F)(F)F)n2)o1 [Compound C59] , and I need its recorded pIC50.
A: 7.55

Q: Please answer likewise for Cc1cc(C)cc(CNC(=O)c2cnc(C)nc2C2CCN(C(=O)Cc3ccccc3)CC2)c1 [Compound A25]
A: 6.57

Q: Please answer likewise for Cc1nc(C)c(C=NOc2cccc(C(F)(F)F)c2)c(C2CCN(C(=O)Cc3c(F)cccc3F)CC2)n1 [Compound B31]
A: 8.47

Q: Please answer likewise for Cc1cc(C)cc(CNC(c2cnc(C)nc2C2CCN(C(=O)Cc3c(F)cccc3F)CC2)C(F)(F)F)c1 (stereo not shown) [Compound F7]
A: 8.01

Q: Please answer likewise for Nc1ncc(C(N)COc2cccc(C(F)(F)F)n2)c(C2CCN(C(=O)Nc3c(F)cccc3F)CC2)n1 (stereo not shown) [Compound N24]
A: 8.03

Q: Please answer likewise for CC(=O)N1CCC(NCC(O)(COc2cccc(C(F)(F)F)n2)c2cnc(C)nc2C2CCN(C(=O)Nc3c(F)cccc3F)CC2)C1 (stereo not shown) [Compound N40]
A: 6.87

Q: Please answer likewise for Cc1ncc(C(C)(C)CNc2nccc(C(F)(F)F)n2)c(C2CCN(C(=O)Cc3c(F)cccc3F)CC2)n1 [Compound F2]
A: 7.59

---

For each record, write down the corresponding IC50.
Molecular target: ligand binding domain of human RORγ (A262-S507) (Homo sapiens, UniProt P51449)
Construct: made in house; host or cells: E. coli
Sequence (P51449 262-507): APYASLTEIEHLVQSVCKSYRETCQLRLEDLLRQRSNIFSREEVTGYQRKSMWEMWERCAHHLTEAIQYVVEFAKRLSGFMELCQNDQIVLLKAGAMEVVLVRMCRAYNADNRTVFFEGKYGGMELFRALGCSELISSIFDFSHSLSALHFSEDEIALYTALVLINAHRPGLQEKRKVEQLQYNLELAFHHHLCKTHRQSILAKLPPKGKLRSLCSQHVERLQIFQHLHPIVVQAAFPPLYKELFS
Assay: General RORγ SPA binding assay (competition with [3H]25-hydroxycholesterol)
Details: RORγ SPA binding assay, inhibition of [3H]25-hydroxycholesterol binding; read-out: IC50
Give the value, in units of µM, as a plain number.

Q: I have this compound here, Cc1cc(C)cc(CNC(=O)c2cnc(C)nc2C2CCN(C(=O)c3ccccc3Cl)CC2)c1 , and I need its recorded IC50.
A: 0.215

Q: Please answer likewise for Cc1ncc(C(C)(O)CNc2ccnc(Cl)c2)c(C2CCN(C(=O)Cc3c(F)cccc3F)CC2)n1 (stereo not drawn)
A: 0.08

Q: Please answer likewise for C/C(=N\Oc1cccc(C(F)(F)F)c1)c1cnc(C)nc1C1CCN(C(=O)Nc2c(F)cccc2C(F)(F)F)CC1
A: 0.008

Q: Please answer likewise for CC(=O)Nc1nc(C)c(C(COc2cccc(C(F)(F)F)n2)OC(C)=O)c(C2CCN(C(=O)Nc3c(F)cccc3F)CC2)n1 (stereo not drawn)
A: 0.037

Q: Please answer likewise for Cc1ncc(C(O)(COc2cccc(C(F)(F)F)n2)C(=O)O)c(C2CCN(C(=O)Nc3c(F)cccc3F)CC2)n1 (stereo not drawn)
A: 0.899

Q: Please answer likewise for Cc1ncc(C(=NOc2cccc(F)c2)C(F)(F)F)c(C2CCN(C(=O)Cc3c(F)cccc3F)CC2)n1 (mixture of isomers)
A: 3.72

Q: Please answer likewise for Cc1ncc(C(C)(F)COc2cccc(C(F)(F)F)n2)c(C2CCN(C(=O)Nc3c(F)cccc3C(F)(F)F)CC2)n1 (stereo not drawn)
A: 0.0132

Q: Please answer likewise for C/C(=N\Oc1ccnc(C(F)(F)F)n1)c1cnc(N)nc1C1CCN(C(=O)Nc2c(F)cccc2F)CC1
A: 0.168

Q: Please answer likewise for CC(C)Oc1ncc(C(=O)NCc2cccc(Cl)c2)c(C2CCN(C(=O)Cc3c(F)cccc3F)CC2)n1
A: 0.175

Q: Please answer likewise for Cc1cnc(CNC(=O)c2cnc(C)nc2C2CCN(C(=O)Cc3c(F)cccc3F)CC2)cn1
A: 5.26

Q: Please answer likewise for Cc1cc(C)cc(CNC(=O)c2cnc(C)nc2C2CCN(C(=O)Cc3cccc4ccccc34)CC2)c1
A: 0.155

Q: Please answer likewise for CNC(COc1cccc(C(F)(F)F)n1)c1cnc(N)nc1C1CCN(C(=O)Nc2c(F)cccc2F)CC1 (stereo not drawn)
A: 0.0182

Q: Please answer likewise for Cc1ncc(C(O)COc2cccc(C(F)(F)F)n2)c(C2CCN(C(=O)Nc3c(F)cccc3F)CC2)n1 (stereo not drawn)
A: 0.0066

Q: Please answer likewise for Cc1cc(C)cc(CNC(=O)c2c(C(C)C)nc(C)nc2C2CCN(C(=O)Cc3c(F)cccc3F)CC2)c1
A: 1.65

Q: Please answer likewise for Cc1cc(C)cc(ONC(=O)c2cnc(C)nc2C2CCN(C(=O)Cc3c(F)cccc3F)CC2)c1
A: 0.049
